test: Cytotoxicity activity against human HepG2 cells assessed by CellTiter-Glo luminescent cell viability assay.; assay type: toxicity, cell-based; parameters: assay stage confirmatory assay, source tissue liver; details: HepG2 cells, read-out: IC50 relative
Activity calls are given as the source filed them. How the calls were made is not given here.
Your response should consist of one outcome taken from YES (active), NO (inactive)

Solved cases (5 shown):
Query: recorded result category for CCOC(=O)C(C)Oc1cccc2c(=O)n(CC(=O)Nc3ccc(OC)cc3)ccc12 (centres undefined) in this test
NO

Recorded test outcome, item Cc1ccc([C@H](C)N(C)C(=O)Nc2cc(C(C)C)n[nH]2)cc1
YES

Dear all, I need the recorded test outcome for O=C(Nc1nc2cc(C(F)(F)F)ccc2[nH]1)C1=COCCO1 , thank you.
YES

Record request — test call for COc1cc(OC)c2cc(CCCN)[nH]c2c1
YES

// return assay outcome for CN(C)CCNC(=O)NC[C@H]1CC[C@@H]2[C@H](O1)c1cc(C(F)(F)F)ccc1N[C@H]2c1ccccc1
YES

Continuing:
Given CCn1cc(CN2C[C@@H]3C[C@H](NC(C)=O)CN3C(=O)[C@@H]2CC(C)C)c2ccccc21 , state the outcome it received in this test.
NO

Give the logged outcome of this assay for the following compound: NCC(=O)Nc1ccc(-n2nc(C(F)(F)F)cc2-c2ccc3c(ccc4ccccc43)c2)cc1
NO

I would be grateful if you could indicate the recorded call for Cc1cc(N)c2ccccc2[n+]1CCCCCCCCCC[n+]1c(C)cc(N)c2ccccc21 [DEQUALINIUM CHLORIDE] .
NO

Hey, what did the test say about COc1ccc(Nc2nc(NCCCO)c3ccccc3n2)cc1 ?
YES

----------
test: Cytotoxicity activity against human HepG2 cells assessed by CellTiter-Glo luminescent cell viability assay.; assay type: toxicity, cell-based; parameters: assay stage confirmatory assay, source tissue liver; conditions: HepG2 cells, read-out: IC50 relative
Calls of active or inactive are those of the source. How the calls were made is not given here.
MEASURED QUANTITY: CC50

Please look up its CC50: COc1ccc2oc(C(=O)Nc3ncccc3O)c(C)c2c1
47.2 µM (inactive)

Give the measured CC50 of O=C(Cn1ncc(Cl)c(Cl)c1=O)N1CCC[C@H]1c1cccs1 .
4.2 µM (active)

Would you kindly share the measured CC50 for CC(=O)c1cnc2ccc(-c3cc(Cl)c(O)c(Cl)c3)nc2c1N[C@H]1CC[C@H](CN(C)C)CC1 ?
0.1 µM (active)

I have this compound here, Cc1ccc(NC(=O)Cc2ccc(-n3cccc3)cc2)nc1 , and I need its recorded CC50.
1.6 µM (active)

Continuing:
Need CC50, item Cc1cc(NC(=O)c2cnn(-c3ccccc3)n2)cc(N2CCN(C)CC2)c1
6.1 µM (active)

----------
assay: Cytotoxicity activity against human HepG2 cells assessed by CellTiter-Glo luminescent cell viability assay.; assay type: toxicity, cell-based; design: assay stage confirmatory assay, source tissue liver; conditions: HepG2 cells, read-out: IC50 relative
Active and inactive are the calls of the source. The rule behind the calls is not given here.
Please state which outcome applies, choosing from active, inactive

Short answer needed: outcome of this test for COc1ccc2cc3[n+](cc2c1OC)CCc1cc2c(cc1-3)OCO2 [BERBERINE CHLORIDE] ?
inactive

So what was the verdict on Cc1ccc(C(=O)Nc2ccc(Oc3cc4cnn(C)c4cc3-c3cn[nH]c3)c(F)c2)c(=O)n1-c1ccc(F)cc1 in this test?
active

Next:
Recorded call for O=C(Cn1nnc2ccccc21)Nc1nc(-c2ccccn2)cs1 ?
active

Name the outcome recorded for Cc1cc(F)c(C(=O)Nc2cccc(-c3nncn3C(C)C)n2)cc1-n1cnc(C2CC2)c1 in the assay.
active

Recorded test call requested for CCCS(=O)(=O)Nc1ccc(Nc2nc(C)cc(N(CC)CC)n2)cc1
active

Entry O=c1cc(CSc2ccccc2)nc2sc(-c3ccco3)nn12 : call = ?
active

Record lookup: outcome of this test for CC(C)Oc1ccc(C(=O)Nc2ccc3c(c2)N(S(C)(=O)=O)CCC3)cc1 ?
active

Check the results log: what was the call for Cn1ccc(C(=O)Nc2cc(F)ccc2-n2cccn2)cc1=O ?
inactive

Test call, this molecule: CNc1ccc(Br)cc1N
active

Please share the test call associated with Cc1ccc(C(=O)Nc2ccc(CN3CCN(C)CC3)c(C(F)(F)F)c2)cc1C#Cc1cnc2cccnn12 .
active

Cited source: ChEMBL document CHEMBL5303711
